The measurements presented in this section are drawn from patent US10494384B2.

molecular target: 20S proteasome extracted from rat liver (CT-L) (Rattus norvegicus, UniProt P18421+P28075); construct: 20S proteasome extracted from rat liver; from tissue; host or cells: rat liver; test: inhibition of 20S proteasome, CT-L activity (fluorescent peptide); type: biochemical
pIC50: −log10 of the molar value.
Threshold rule: pIC50 greater than or equal to 8 is Y; below that, N.

# count of solved cases: 6
compound="CC(C)C[C@H](NC(=O)[C@H](Cc1ccccc1)NC(=O)NCc1ccc(F)c(F)c1)B(O)O [Example 35]" labelvalue=Y
compound="CC(C)C[C@H](NC(=O)[C@H](Cc1ccccc1)NC(=O)N(C)Cc1ccccc1)B(O)O [Example 29]" labelvalue=Y
compound="CC(C)C[C@H](NC(=O)[C@H](Cc1ccccc1)NC(=O)N1CCc2ccccc2C1=O)B(O)O [Example 37]" labelvalue=N
compound="Cc1cccc(CNC(=O)N[C@@H](Cc2ccccc2)C(=O)N[C@@H](CC(C)C)B(O)O)c1C [Example 30]" labelvalue=Y
compound="CC(C)C[C@H](NC(=O)[C@H](Cc1ccccc1)NC(=O)NCc1cc(Cl)ccc1Cl)B(O)O [Example 31]" labelvalue=N
compound="CC(C)C[C@H](NC(=O)[C@H](Cc1ccccc1)NC(=O)NCc1cccc([N+](=O)[O-])c1)B(O)O [Example 36]" labelvalue=Y

## Task Is pIC50 at least 8? Consider CC(C)C[C@H](NC(=O)[C@H](Cc1ccccc1)NC(=O)NCc1ccco1)B(O)O [Example 33]
## Result N

## Task Input CC(C)C[C@H](NC(=O)[C@H](Cc1ccccc1)NC(=O)NCc1cnccn1)B(O)O [Example 2]
## Result N

## Task CC(C)C[C@H](NC(=O)[C@H](Cc1ccccc1)NC(=O)NCCc1ccccc1)B(O)O [Example 25] ?
## Result N
